targetSystem: bovine cardiac myosin (Bos taurus, UniProt Q9BE39)
Construct: The source of cardiac myosin was from bovine heart in the form of skinned myofibrils; from tissue; host or cells: bovine heart, skinned myofibrils
Sequence (Q9BE39 whole entry): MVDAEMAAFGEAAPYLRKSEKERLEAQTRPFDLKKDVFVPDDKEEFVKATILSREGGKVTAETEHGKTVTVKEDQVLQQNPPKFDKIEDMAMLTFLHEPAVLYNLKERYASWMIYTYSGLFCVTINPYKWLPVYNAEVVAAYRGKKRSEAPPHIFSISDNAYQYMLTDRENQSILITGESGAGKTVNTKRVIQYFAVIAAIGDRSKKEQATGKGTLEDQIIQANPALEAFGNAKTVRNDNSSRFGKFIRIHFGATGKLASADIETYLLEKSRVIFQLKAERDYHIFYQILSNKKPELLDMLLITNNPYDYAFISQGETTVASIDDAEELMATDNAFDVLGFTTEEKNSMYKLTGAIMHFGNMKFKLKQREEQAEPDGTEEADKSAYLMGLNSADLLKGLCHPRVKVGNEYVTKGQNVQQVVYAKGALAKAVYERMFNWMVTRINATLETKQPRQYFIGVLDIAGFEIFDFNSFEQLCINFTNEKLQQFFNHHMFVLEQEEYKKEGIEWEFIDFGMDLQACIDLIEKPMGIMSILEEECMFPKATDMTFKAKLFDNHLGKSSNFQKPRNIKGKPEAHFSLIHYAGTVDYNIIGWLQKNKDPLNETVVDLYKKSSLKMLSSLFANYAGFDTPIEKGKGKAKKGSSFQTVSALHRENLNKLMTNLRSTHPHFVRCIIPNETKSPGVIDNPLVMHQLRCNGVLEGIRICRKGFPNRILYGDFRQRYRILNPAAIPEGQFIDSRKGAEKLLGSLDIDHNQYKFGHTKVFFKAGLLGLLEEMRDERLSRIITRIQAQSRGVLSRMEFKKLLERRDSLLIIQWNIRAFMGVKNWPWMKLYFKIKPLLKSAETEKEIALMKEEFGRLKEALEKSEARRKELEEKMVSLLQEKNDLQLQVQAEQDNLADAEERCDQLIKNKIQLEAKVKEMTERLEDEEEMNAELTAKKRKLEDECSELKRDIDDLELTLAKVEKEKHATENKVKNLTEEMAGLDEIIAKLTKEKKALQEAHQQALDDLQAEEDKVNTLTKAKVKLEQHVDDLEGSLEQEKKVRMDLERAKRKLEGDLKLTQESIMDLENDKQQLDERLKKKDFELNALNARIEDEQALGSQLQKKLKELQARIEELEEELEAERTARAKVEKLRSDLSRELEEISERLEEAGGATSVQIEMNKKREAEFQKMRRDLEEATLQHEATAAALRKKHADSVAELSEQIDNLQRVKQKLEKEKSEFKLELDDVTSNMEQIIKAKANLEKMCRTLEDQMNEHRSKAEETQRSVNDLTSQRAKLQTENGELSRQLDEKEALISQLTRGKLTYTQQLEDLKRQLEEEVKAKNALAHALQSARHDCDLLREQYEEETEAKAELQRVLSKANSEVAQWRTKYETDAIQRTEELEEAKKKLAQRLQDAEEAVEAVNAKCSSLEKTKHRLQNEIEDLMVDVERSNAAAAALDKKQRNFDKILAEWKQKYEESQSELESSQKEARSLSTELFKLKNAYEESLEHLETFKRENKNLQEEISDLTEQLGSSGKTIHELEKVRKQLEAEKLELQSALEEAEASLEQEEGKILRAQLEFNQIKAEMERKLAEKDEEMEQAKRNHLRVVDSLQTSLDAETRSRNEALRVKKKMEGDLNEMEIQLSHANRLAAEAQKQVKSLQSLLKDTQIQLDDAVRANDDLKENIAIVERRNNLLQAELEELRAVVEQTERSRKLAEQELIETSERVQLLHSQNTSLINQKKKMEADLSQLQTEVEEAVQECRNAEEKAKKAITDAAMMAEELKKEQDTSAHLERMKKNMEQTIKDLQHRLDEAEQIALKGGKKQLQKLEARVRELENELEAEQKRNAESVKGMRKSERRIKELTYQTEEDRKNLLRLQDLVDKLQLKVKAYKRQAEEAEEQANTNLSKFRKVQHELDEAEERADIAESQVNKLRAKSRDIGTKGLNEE
Sequence (P85100 whole entry partner): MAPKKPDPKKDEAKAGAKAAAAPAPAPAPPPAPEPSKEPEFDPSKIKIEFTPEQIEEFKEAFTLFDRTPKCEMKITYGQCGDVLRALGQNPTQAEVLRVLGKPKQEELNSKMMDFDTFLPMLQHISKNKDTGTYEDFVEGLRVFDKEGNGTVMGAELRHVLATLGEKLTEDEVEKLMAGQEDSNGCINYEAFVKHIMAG
Sequence (Q3SZE5 whole entry partner): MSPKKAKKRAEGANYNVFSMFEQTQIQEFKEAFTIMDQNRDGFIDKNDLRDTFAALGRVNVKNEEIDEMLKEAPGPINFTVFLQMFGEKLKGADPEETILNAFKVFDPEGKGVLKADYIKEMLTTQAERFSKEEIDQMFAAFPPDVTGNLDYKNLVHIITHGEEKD
testProtocol: Myosin inhibition assay (PK/LDH-coupled ATPase, bovine cardiac myofibrils)
Format: biochemical
experimentalParameters: bovine cardiac myofibrils, calcium giving 75% activation (pCa75); read-out: Biochemical Activity (pCa75)
Entries and their measured IC50 follow.

In [3]: df
Out[3]:
                                   compound  observationtype  recordedvalue
0  C[C@H](Nc1cc(=O)n(C2CCCCC2)c(=O)[nH]1)c1ccccc1 [Compound 44]             IC50      < 1000 nM
1  CC[C@H](Nc1[nH]c(=O)n(C(C)C)c(=O)c1F)c1ccccc1 [Compound 31]             IC50      < 1000 nM
2  CC(C)n1c(=O)cc(N[C@@H](C)c2cccc(Br)c2)[nH]c1=O [Compound 35]             IC50      < 1000 nM

Please turn your attention to the following entry.
Lookup result for C[C@H](Nc1cc(=O)n([C@@H](C)COCc2ccccc2)c(=O)[nH]1)c1ccccc1 [Compound 91] ; measured IC50: 1000 to 15000 nM

###

targetSystem: bovine cardiac myosin (Bos taurus, UniProt Q9BE39)
Construct: The source of cardiac myosin was from bovine heart in the form of skinned myofibrils; from tissue; host or cells: bovine heart, skinned myofibrils
testProtocol: Myosin inhibition assay (PK/LDH-coupled ATPase, bovine cardiac myofibrils)
Type: biochemical
experimentalParameters: bovine cardiac myofibrils, calcium giving 75% activation (pCa75); read-out: Biochemical Activity (pCa75)
pIC50: −log10 of the molar value.
observationType: pIC50

                                  structure  recordedvalue
0  C[C@H](Nc1cc(=O)n([C@H](C)C(F)(F)F)c(=O)[nH]1)c1ccccc1         > 6.00

Lookup result for C[C@H](Nc1cc(=O)n(C2CCC(F)(F)CC2)c(=O)[nH]1)c1ccccc1 ; measured pIC50: > 6.00

###

targetSystem: bovine cardiac myosin (Bos taurus, UniProt Q9BE39)
Construct: The source of cardiac myosin was from bovine heart in the form of skinned myofibrils; from tissue; host or cells: bovine heart, skinned myofibrils
testProtocol: Myosin inhibition assay (PK/LDH-coupled ATPase, bovine cardiac myofibrils)
Assay type: biochemical
experimentalParameters: bovine cardiac myofibrils, calcium giving 75% activation (pCa75); read-out: Biochemical Activity (pCa75)
pIC50: −log10 of the molar value.
observationType: pIC50

                                   molecule  observationtype  recordedvalue
0  CC(C)n1c(=O)cc(N[C@@H](C)c2cccc(N3CCOC3=O)c2)[nH]c1=O            pIC50         > 6.00
1  C[C@H](Nc1cc(=O)n(-c2ccnnc2)c(=O)[nH]1)c1ccccc1            pIC50   4.82 to 6.00
2  C[C@H](Nc1cc(=O)n(-c2ccccn2)c(=O)[nH]1)c1ccccc1            pIC50         > 6.00
3  CC(CC(F)(F)F)n1c(=O)cc(N[C@@H](C)c2ccccc2)[nH]c1=O (stereo partly drawn)            pIC50         > 6.00
4  CC(C)n1c(=O)cc(N[C@@H](C)c2ccccc2C#N)[nH]c1=O            pIC50         < 4.82
5  CC[C@H](Nc1cc(=O)n(C(C)C)c(=O)[nH]1)c1ccccc1            pIC50         > 6.00
6  CC(C)n1c(=O)[nH]c(N[C@@H](C)c2ccccc2)c(F)c1=O            pIC50   4.82 to 6.00
7  C[C@H](Nc1cc(=O)n(-c2cnn(C)c2)c(=O)[nH]1)c1ccccc1            pIC50   4.82 to 6.00

Please turn your attention to the following entry.
Lookup result for COC(=O)N1CCC(n2c(=O)cc(N[C@@H](C)c3ccccc3)[nH]c2=O)CC1 ; measured pIC50: > 6.00

###

Entries and their measured IC50 follow.
targetSystem: bovine cardiac myosin (Bos taurus)
Construct: The source of cardiac myosin was from bovine heart in the form of skinned myofibrils; from tissue; host or cells: bovine heart, skinned myofibrils
testProtocol: Myosin inhibition assay (PK/LDH-coupled ATPase, bovine cardiac myofibrils)
Format: biochemical
experimentalParameters: bovine cardiac myofibrils, calcium giving 75% activation (pCa75); read-out: Biochemical Activity (pCa75)

>>> df
                                  structure     recordedvalue
0  COc1cccc([C@@H](Nc2cc(=O)n(C(C)C)c(=O)[nH]2)C2CC2)c1         < 1000 nM
1  CC(C)n1c(=O)cc(N[C@@H](C)c2cccc(-n3ccnc3)c2)[nH]c1=O  1000 to 15000 nM
2  C[C@H](Nc1cc(=O)n([C@@H]2CCCOC2)c(=O)[nH]1)c1ccccc1  1000 to 15000 nM
3  CC(C)n1c(=O)cc(N[C@@H](C)Cc2ccccc2)[nH]c1=O  1000 to 15000 nM
4  C[C@H](Nc1cc(=O)n(C2CC2)c(=O)[nH]1)c1ccccc1  1000 to 15000 nM

Lookup result for CCC(CC)n1c(=O)cc(N[C@@H](C)c2ccccc2)[nH]c1=O ; measured IC50: < 1000 nM

###

targetSystem: bovine cardiac myosin (Bos taurus, UniProt Q9BE39)
Construct: The source of cardiac myosin was from bovine heart in the form of skinned myofibrils; from tissue; host or cells: bovine heart, skinned myofibrils
testProtocol: Myosin inhibition assay (PK/LDH-coupled ATPase, bovine cardiac myofibrils)
Type: biochemical
experimentalParameters: bovine cardiac myofibrils, calcium giving 50% activation (pCa50); read-out: Biochemical Activity (pCa50)
pIC50: −log10 of the molar value.
Entries and their measured pIC50 follow.

                                  structure  recordedvalue
0  CC(C)n1c(=O)cc(N[C@@H](C)c2ccc3c(c2)OC(F)(F)O3)[nH]c1=O         > 6.00

Lookup result for C[C@H](Nc1cc(=O)n(CC(F)(F)F)c(=O)[nH]1)c1ccc2c(c1)OCO2 ; measured pIC50: > 6.00

Lookup result for CCn1c(=O)cc(N[C@@H](C)c2ccc3c(c2)OCO3)[nH]c1=O ; measured pIC50: > 6.00

Lookup result for CC(C)n1c(=O)[nH]c(N[C@@H](C)c2ccc3c(c2)OC(F)(F)O3)c(Cl)c1=O ; measured pIC50: 4.82 to 6.00

Lookup result for CC(C)n1c(=O)cc(N[C@@H](C)c2ccccc2O)[nH]c1=O ; measured pIC50: > 6.00

Lookup result for C[C@H](Nc1cc(=O)n([C@H](C)CO)c(=O)[nH]1)c1ccccc1 ; measured pIC50: 4.82 to 6.00

Lookup result for C[C@H](Nc1cc(=O)n(CC2CC2)c(=O)[nH]1)c1cccc(F)c1 ; measured pIC50: > 6.00

Lookup result for CC(C)n1c(=O)cc(N[C@@H](C)c2ccccc2Cl)[nH]c1=O ; measured pIC50: > 6.00

###

Entries and their measured IC50 follow.
targetSystem: bovine cardiac myosin (Bos taurus, UniProt Q9BE39)
Construct: The source of cardiac myosin was from bovine heart in the form of skinned myofibrils; from tissue; host or cells: bovine heart, skinned myofibrils
testProtocol: Myosin inhibition assay (PK/LDH-coupled ATPase, bovine cardiac myofibrils)
Type: biochemical
experimentalParameters: bovine cardiac myofibrils, calcium giving 50% activation (pCa50); read-out: Biochemical Activity (pCa50)

                                  structure  recordedvalue
0  CCn1c(=O)cc(N[C@H](c2ccccc2)C2CCC2)[nH]c1=O      < 1000 nM

Please turn your attention to the following entry.
Lookup result for C[C@H](Nc1cc(=O)n(C(C)(C)C)c(=O)[nH]1)c1ccccc1 ; measured IC50: 1000 to 15000 nM

###

targetSystem: bovine cardiac myosin (Bos taurus, UniProt Q9BE39)
Construct: The source of cardiac myosin was from bovine heart in the form of skinned myofibrils; from tissue; host or cells: bovine heart, skinned myofibrils
testProtocol: Myosin inhibition assay (PK/LDH-coupled ATPase, bovine cardiac myofibrils)
Format: biochemical
experimentalParameters: bovine cardiac myofibrils, calcium giving 75% activation (pCa75); read-out: Biochemical Activity (pCa75)
Entries and their measured IC50 follow.

Worked examples, 4 molecules total:
>>> df
                                  structure  recordedvalue
0  C[C@H](Nc1cc(=O)n(-c2ccon2)c(=O)[nH]1)c1ccccc1     1 to 15 µM
1  C[C@H](Nc1cc(=O)n(-c2c(F)cccc2F)c(=O)[nH]1)c1ccccc1         < 1 µM
2  CCC[C@H](Nc1cc(=O)n(C(C)C)c(=O)[nH]1)c1ccccc1         < 1 µM
3  C[C@H](Nc1cc(=O)n([C@H](C)CO)c(=O)[nH]1)c1ccccc1     1 to 15 µM

Please turn your attention to the following entry.
Lookup result for Cc1cccc([C@H](C)Nc2cc(=O)n(C(C)C)c(=O)[nH]2)c1 ; measured IC50: < 1 µM

# credit: patent USRE50050E1
